Test Target: Rel^NTD (B. subtilis Rel NTD, 1-373) (Bacillus subtilis, UniProt O54408)
Sequence (O54408 1-373): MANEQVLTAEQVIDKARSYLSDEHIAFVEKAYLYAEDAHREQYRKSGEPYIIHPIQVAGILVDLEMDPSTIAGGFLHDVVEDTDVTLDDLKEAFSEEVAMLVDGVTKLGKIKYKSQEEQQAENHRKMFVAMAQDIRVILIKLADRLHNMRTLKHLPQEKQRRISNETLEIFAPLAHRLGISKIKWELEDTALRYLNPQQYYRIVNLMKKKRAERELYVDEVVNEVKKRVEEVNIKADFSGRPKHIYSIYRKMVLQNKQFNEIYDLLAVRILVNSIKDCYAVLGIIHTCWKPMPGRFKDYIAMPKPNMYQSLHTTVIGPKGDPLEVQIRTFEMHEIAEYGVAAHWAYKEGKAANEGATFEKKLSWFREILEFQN
Endpoint Name: Kd (µM)

- Nc1nc2c(ncn2[C@@H]2O[C@H](COP(=O)(O)OP(=O)(O)OP(=O)(O)O)[C@@H](OP(=O)(O)OP(=O)(O)O)[C@H]2O)c(=O)[nH]1 [pppGpp]: 10.6
